target: human PD-L1 (human, UniProt Q9NZQ7 19-290); experiment: cell-based or functional assay
Sequence (Q9NZQ7 19-290): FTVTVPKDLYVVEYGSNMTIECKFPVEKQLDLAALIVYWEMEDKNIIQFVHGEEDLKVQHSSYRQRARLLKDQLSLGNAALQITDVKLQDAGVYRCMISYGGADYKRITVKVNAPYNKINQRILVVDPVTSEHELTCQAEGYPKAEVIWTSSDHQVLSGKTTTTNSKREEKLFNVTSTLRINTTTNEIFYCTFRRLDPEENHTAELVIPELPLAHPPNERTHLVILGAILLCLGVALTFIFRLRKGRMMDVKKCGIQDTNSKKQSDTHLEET
Provide the reported Fold Increase over WT CD80-IgV-Fc, Jurkat/IL2 + CHO/OKT3/PD-L1 Reporter Assay of each item.
Answers are plain numbers, in fold.

Which Fold Increase over WT CD80-IgV-Fc, Jurkat/IL2 + CHO/OKT3/PD-L1 Reporter Assay is listed for CD80 E35D/M47V/N48K/V68M/K89N IgV-Fc, delta linker (Fc fusion, Fused directly to the Fc with no additional linker; also called E35D/M47V/N48K/V68M/K89N delta) VIHVTKEVKEVATLSCGHNVSVEELAQTRIYWQKDKKMVLTMMSGDVKIWPEYKNRTIFDITNNLSIMILALRPSDEGTYECVVLKYENDAFKREHLAEVTLSVKTHTCPPCPAPEAEGAPSVFLFPPKPKDTLMISRTPEVTCVVVDVSHEDPEVKFNWYVDGVEVHNAKTKPREEQYNSTYRVVSVLTVLHQDWLNGKEYKCKVSNKALPAPIEKTISKAKGQPREPQVYTLPPSREEMTKNQVSLTCLVKGFYPSDIAVEWESNGQPENNYKTTPPVLDSDGSFFLYSKLTVDKSRWQQGNVFSCSVMHEALHNHYTQKSLSLSPG ?
2.63

I have 2 binders here; please give me Fold Increase over WT CD80-IgV-Fc, Jurkat/IL2 + CHO/OKT3/PD-L1 Reporter Assay for each one.
1. CD80 E35D/M47V/N48K/V68M/K89N IgV-Fc, EAAAK linker (Fc fusion, not shown: a dimerising Fc or GST) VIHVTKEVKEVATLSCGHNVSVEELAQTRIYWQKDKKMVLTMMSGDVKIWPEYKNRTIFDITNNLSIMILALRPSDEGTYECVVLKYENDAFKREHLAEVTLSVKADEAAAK
2. CD80 E35D/D46V/M47L/V68M/L85Q/E88D IgV-Fc, GS(G4S)5 linker (Fc fusion, not shown: a dimerising Fc or GST) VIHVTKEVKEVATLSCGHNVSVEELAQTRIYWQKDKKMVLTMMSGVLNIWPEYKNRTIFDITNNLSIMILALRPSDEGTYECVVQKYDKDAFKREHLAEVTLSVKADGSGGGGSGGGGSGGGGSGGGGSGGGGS

[4.38, 5.26]
